# protocolText: Confirmation screen for delayed death inhibitors of the malarial parasite plastid, 96 hour incubation; also: nearly all actives have a fitted effect of over 60% in size
# testParameters: P. falciparum luciferase growth in erythrocytes; series mostly up to 28.7 µM
The campaign covered roughly 2,300 compounds. About 1,400 (61%) were called active. Another 29% or so got no clear call; they are omitted. Calls follow the shape of the dose curve; as a rule, active = well fitted inhibition curve with a large enough effect; inconclusive = small, poorly fitted or top-dose-only effect, or effect the other way; inactive = no such curve, though single readings can be large or run the other way. The set was probably picked from earlier hits. The list shows a part of the results.
Parameter call: string, one of yes = active, no = inactive

Could you kindly confirm the outcome this assay logged for Cc1ccc(-c2cc(C(=O)N/N=C/C=C/c3ccco3)c3ccccc3n2)cc1C ? yes

Could you kindly confirm the outcome this assay logged for O=C1c2ccccc2-n2c1nc1ccccc1c2=O ? yes

Could you kindly confirm the outcome this assay logged for CCOC(=O)c1ccc(CNC(=O)c2cc(COc3ccccc3SC)on2)o1 ? no

More entries:
Could you kindly confirm the outcome this assay logged for CSc1ccccc1OCc1cc(C(=O)NCCCn2nc(C)cc2C)no1 ? yes

Could you kindly confirm the outcome this assay logged for Clc1ccccc1Cn1c(/C=C/c2ccco2)nc2ccccc21 ? yes

---

# protocolText: Confirmation screen for delayed death inhibitors of the malarial parasite plastid, 96 hour incubation; also: nearly all actives have a fitted effect of over 60% in size
# testParameters: P. falciparum luciferase growth in erythrocytes; series mostly up to 28.7 µM
Among all 2,300 compounds or so, about 1,400 (61%) were called active. Roughly 29% stayed inconclusive and do not appear here. The call rests on the fitted dose curve; in most records, active means well fitted inhibition curve with a large enough effect; inconclusive means small, poorly fitted or top-dose-only effect, or effect the other way; inactive means no such curve, though single readings can be large or run the other way. The set was probably picked from earlier hits. The list shows a part of the results.
Parameter call: string, one of active, inactive

Below are worked cases with known answers.
Could you kindly confirm the outcome this assay logged for CO[C@H](C(=O)[C@@H](O)[C@@H](C)O)C1Cc2cc3cc(O[C@H]4C[C@@H](O[C@H]5C[C@@H](O)[C@H](O)[C@@H](C)O5)[C@@H](O)[C@@H](C)O4)c(C)c(O)c3c(O)c2C(=O)[C@H]1O[C@H]1C[C@@H](O[C@H]2C[C@@H](O[C@H]3C[C@](C)(O)[C@H](O)[C@@H](C)O3)[C@H](O)[C@@H](C)O2)[C@H](O)[C@@H](C)O1 (stereo partly drawn) ? active

Could you kindly confirm the outcome this assay logged for CSc1nc(C)c(C(=O)C[n+]2ccc(C)cc2)cc1C#N ? active

Could you kindly confirm the outcome this assay logged for Cc1cccc[n+]1CC(=O)Nc1ccc([N+](=O)[O-])cc1 ? active

Could you kindly confirm the outcome this assay logged for Cc1ccc(C(=O)C[n+]2ccccc2C)cc1[N+](=O)[O-] ? active

For the next question, use this compound.
Could you kindly confirm the outcome this assay logged for Cn1c(Cc2cccc3ccccc23)nnc1SCc1ccc([N+](=O)[O-])cc1 ? active

---

# protocolText: Confirmation screen for delayed death inhibitors of the malarial parasite plastid, 96 hour incubation; also: nearly all actives have a fitted effect of over 60% in size
# testParameters: P. falciparum luciferase growth in erythrocytes; series mostly up to 28.7 µM
The campaign covered roughly 2,300 compounds. About 1,400 (61%) were called active. Roughly 29% stayed inconclusive and do not appear here. Calls come from the whole dose curve; as a rule, active = well fitted inhibition curve with a large enough effect; inconclusive = small, poorly fitted or top-dose-only effect, or effect the other way; inactive = no such curve, though single readings can be large or run the other way. The set was probably picked from earlier hits. This is one part of the list.
Parameter call: string, one of 1.0 = active, 0.0 = inactive

Below are worked cases with known answers.
Could you kindly confirm the outcome this assay logged for COc1cc(C2Oc3ccccc3C=C2[N+](=O)[O-])cc(OC)c1OC (configuration not stated) ? 1.0

Could you kindly confirm the outcome this assay logged for Nc1nc(C2CC2)c(Sc2sc(N)nc2C2CC2)s1 ? 0.0

Could you kindly confirm the outcome this assay logged for CC1=Nc2cc(C(=O)N3CCCC3)ccc2Sc2ccc(C)cc21 ? 1.0

Could you kindly confirm the outcome this assay logged for Cc1ccc(CN2CCC(CNS(=O)(=O)c3ccc(-c4ccc(=O)[nH]n4)s3)CC2)cc1 ? 1.0

More entries:
Could you kindly confirm the outcome this assay logged for Cc1c(/C=N/Nc2nc3ccccc3[nH]2)c2ccccc2n1C ? 1.0
